# TEST SUMMARY: pH and heat stability of trityl ester of antibiotic PS-5
# Assay type: physicochemical
# CONDITION DESCRIPTION: phosphate buffer; pH 7.0, 60° C. for 30 minutes; read-out: Residual activity

- MOLECULE: "CCC1C(=O)N2C(C(=O)OC(c3ccccc3)(c3ccccc3)c3ccccc3)=C(SCCNC(C)=O)CC12 (single isomer, unassigned) [Trityl PS-5]"
  MEASUREMENT UNITS: "%"
  remaining at 0.5 h: 100

====

# TEST SUMMARY: pH and heat stability of antibiotic PS-5 in aqueous solution
# Type: physicochemical
# CONDITION DESCRIPTION: pH 3, pH 3.0 for 5 minutes at -17° C.; read-out: Initial antibiotic activity still detected

- COMPOUND: "CCC1C(=O)N2C(C(=O)O)=C(SCCNC(C)=O)CC12 (single isomer, unassigned) [Antibiotic PS-5]"
  remaining at 5 min: "≥ 30%"
